# System name: GABA A receptor alpha-4/beta-3/gamma-2 (Homo sapiens, UniProt P48169+P18507+P28472)
# Sequence (P48169 whole entry): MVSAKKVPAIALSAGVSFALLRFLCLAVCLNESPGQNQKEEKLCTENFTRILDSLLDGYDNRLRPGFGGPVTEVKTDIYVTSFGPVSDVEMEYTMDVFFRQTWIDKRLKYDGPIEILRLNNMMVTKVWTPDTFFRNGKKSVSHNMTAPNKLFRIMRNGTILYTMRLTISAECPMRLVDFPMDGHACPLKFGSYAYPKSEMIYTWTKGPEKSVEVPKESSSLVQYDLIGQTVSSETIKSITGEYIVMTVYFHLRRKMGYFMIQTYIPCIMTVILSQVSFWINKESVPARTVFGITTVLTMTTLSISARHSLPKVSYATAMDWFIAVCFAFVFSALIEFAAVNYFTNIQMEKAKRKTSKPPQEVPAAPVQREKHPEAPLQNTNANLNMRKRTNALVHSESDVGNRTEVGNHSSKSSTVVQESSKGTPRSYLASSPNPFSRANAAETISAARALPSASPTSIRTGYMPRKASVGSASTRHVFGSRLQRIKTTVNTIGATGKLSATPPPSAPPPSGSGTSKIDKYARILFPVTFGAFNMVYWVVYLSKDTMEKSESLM
# Sequence (P18507 as listed by the source): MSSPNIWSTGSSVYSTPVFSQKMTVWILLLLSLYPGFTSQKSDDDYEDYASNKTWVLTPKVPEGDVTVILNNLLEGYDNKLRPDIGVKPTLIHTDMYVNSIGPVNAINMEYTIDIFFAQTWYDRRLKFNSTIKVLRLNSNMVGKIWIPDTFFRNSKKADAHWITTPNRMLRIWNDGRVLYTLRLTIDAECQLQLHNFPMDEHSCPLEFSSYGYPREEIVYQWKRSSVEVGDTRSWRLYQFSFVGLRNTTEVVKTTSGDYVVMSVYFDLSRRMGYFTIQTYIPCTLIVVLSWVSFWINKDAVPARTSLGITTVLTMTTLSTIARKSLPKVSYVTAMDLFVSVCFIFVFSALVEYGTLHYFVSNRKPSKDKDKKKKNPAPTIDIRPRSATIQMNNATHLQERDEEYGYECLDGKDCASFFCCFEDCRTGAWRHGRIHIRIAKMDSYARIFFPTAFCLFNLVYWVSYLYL
# Sequence (P28472 whole entry): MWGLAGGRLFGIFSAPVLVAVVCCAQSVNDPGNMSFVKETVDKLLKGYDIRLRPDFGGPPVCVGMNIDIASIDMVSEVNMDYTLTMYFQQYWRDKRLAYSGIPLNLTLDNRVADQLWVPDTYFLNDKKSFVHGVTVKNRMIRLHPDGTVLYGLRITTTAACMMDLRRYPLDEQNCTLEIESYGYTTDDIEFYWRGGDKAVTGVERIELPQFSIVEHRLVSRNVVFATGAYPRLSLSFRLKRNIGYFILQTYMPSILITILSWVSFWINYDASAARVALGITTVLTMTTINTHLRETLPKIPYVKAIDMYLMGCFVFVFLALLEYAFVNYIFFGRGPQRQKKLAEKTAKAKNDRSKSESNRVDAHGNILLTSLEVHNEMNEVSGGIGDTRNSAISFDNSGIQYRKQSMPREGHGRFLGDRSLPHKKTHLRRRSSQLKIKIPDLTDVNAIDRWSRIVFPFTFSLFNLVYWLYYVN
# Test description: Displacement of [3H]flunitrazepam from human recombinant GABAA alpha-4-beta-3-gamma-2 receptor expressed in HEK cells by liquid scintillation counting
Measure: Ki
Provide a numeric answer, followed by its unit.

Ask: Any idea what its Ki is? The compound is CC(C)(C)OC(=O)c1cc2c(cn1)[nH]c1ccccc12
Reply: 1000 nM

Ask: Would you kindly repeat that for C#Cc1ccc2[nH]c3cnc(C(=O)OCC(F)(F)F)cc3c2c1 ?
Reply: 2000 nM

Ask: Would you kindly repeat that for O=C(OCC(F)(F)F)c1cc2c(cn1)[nH]c1ccc(-c3ccccc3)cc12 ?
Reply: 2000 nM

Ask: Would you kindly repeat that for CC(C)(C)OC(=O)c1cc2c(cn1)[nH]c1ccc(C(C)(C)C)cc12 ?
Reply: 1000 nM

Ask: Would you kindly repeat that for CCCOc1cc2c(cn1)[nH]c1ccccc12 [3-propoxy-9H-pyrido[3,4-b]indole] ?
Reply: 1000 nM

Ask: Would you kindly repeat that for CC(OC(=O)c1cc2c(cn1)[nH]c1ccccc12)c1ccccc1 (stereo not given) ?
Reply: 1000 nM

Ask: Would you kindly repeat that for CC(C)(C)OC(=O)c1cc2c(cn1)[nH]c1ccc(C#CC#Cc3ccc4[nH]c5cnc(C(=O)OC(C)(C)C)cc5c4c3)cc12 ?
Reply: 5000 nM

Ask: Would you kindly repeat that for O=C(OC(C(F)(F)F)C(F)(F)F)c1cc2c(cn1)[nH]c1ccccc12 ?
Reply: 1000 nM

Ask: Would you kindly repeat that for O=C(OCC(F)(F)F)c1cc2c(cn1)[nH]c1ccc(-c3cccs3)cc12 ?
Reply: 2000 nM

Ask: Would you kindly repeat that for O=C(OC(C(F)(F)F)C(F)(F)F)c1cc2c(cn1)[nH]c1ccc(I)cc12 ?
Reply: 3000 nM

###

# System name: Gamma-aminobutyric acid receptor subunit alpha-6/beta-3/gamma-2 (Homo sapiens, UniProt Q16445+P18507+P28472)
# Sequence (Q16445 whole entry): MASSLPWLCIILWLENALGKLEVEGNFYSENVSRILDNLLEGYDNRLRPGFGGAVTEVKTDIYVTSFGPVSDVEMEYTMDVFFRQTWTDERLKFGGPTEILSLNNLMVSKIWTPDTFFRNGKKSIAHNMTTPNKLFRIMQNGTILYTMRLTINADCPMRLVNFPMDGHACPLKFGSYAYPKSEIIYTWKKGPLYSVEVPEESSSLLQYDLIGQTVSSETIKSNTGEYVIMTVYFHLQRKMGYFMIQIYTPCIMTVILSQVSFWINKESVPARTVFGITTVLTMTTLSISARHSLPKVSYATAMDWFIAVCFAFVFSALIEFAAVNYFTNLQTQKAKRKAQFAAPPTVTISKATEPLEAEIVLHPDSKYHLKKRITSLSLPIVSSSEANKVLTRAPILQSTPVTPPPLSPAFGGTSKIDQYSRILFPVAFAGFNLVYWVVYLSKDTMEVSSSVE
# Sequence (P18507 as listed by the source): as the sequence (P18507 as listed by the source) above
# Sequence (P28472 whole entry): as the sequence (P28472 whole entry) above
# Test description: Displacement of [3H]flunitrazepam from human recombinant GABAA alpha-6-beta-3-gamma-2 receptor expressed in HEK cells by liquid scintillation counting
Task for the reader: assign each of the following compounds its reported pKi.
The value called pKi is obtained by taking minus log10 of the concentration in mol/L.

Ask: Any idea what its pKi is? The compound is O=C(OCC(Cl)(Cl)Cl)c1cc2c(cn1)[nH]c1ccccc12
Reply: 5.70

Ask: Would you kindly repeat that for CC(C)COc1cc2c3ccccc3nc-2c[nH]1 ?
Reply: 5.00

Ask: Would you kindly repeat that for O=C(OCC(F)(F)F)c1cc2c(cn1)[nH]c1ccc(I)cc12 ?
Reply: 5.52

Ask: Would you kindly repeat that for O=C(OCC(F)(F)F)c1cc2c(cn1)[nH]c1ccc(-c3ccco3)cc12 ?
Reply: 5.70

Ask: Would you kindly repeat that for O=C(OCC(F)(F)F)c1cc2c(cn1)[nH]c1ccc(-c3cccs3)cc12 ?
Reply: 5.70

Ask: Would you kindly repeat that for C#Cc1ccc2[nH]c3cnc(C(=O)OCC(F)(F)F)cc3c2c1 ?
Reply: 5.70

Ask: Would you kindly repeat that for CC(C)(C)OC(=O)c1cc2c(cn1)[nH]c1ccc(-c3ccco3)cc12 ?
Reply: 5.30

Ask: Would you kindly repeat that for CC(C)(C)OC(=O)c1cc2c(cn1)[nH]c1ccc(-c3ccccc3)cc12 ?
Reply: 5.30
